- PROTOCOL DESCRIPTION: Crystallization of amorphous nanosized API in aqueous polymer solution, polymorph/crystallinity by XRD
- Assay type: physicochemical
- Set-up: key: bulk = same as the API before conversion to amorphous nanoparticles
- CONDITION: Poloxamer 407 5 wt.-%, no SLS, mAPI 25 mg/g

MOLECULE	Polymorph
O=C1[C@H](CC[C@H](O)c2ccc(F)cc2)[C@@H](c2ccc(O)cc2)N1c1ccc(F)cc1 [Eze, ezetimibe]	bulk
CCCC1O[C@@H]2C[C@H]3[C@@H]4CCC5=CC(=O)C=C[C@]5(C)[C@H]4[C@@H](O)C[C@]3(C)[C@]2(C(=O)CO)O1 (stereo partly shown) [Bude, budesonide]	bulk

* * *

- PROTOCOL DESCRIPTION: Crystallization of amorphous nanosized API in aqueous polymer solution, polymorph/crystallinity by XRD
- Assay type: physicochemical
- Set-up: key: bulk = same as the API before conversion to amorphous nanoparticles
- CONDITION: Poloxamer 407 2.5 wt.-%, no SLS, mAPI 25 mg/g
- Protocol: XRPD measurements were carried out using the Malvern PANalytical Empyrean X-ray diffractometer equipped with a Cu Kα (1.54 Å) source, MultiCore optics and a solid-state PIXcel3D detector. […] Dried slurries were measured without further sample preparation under Kapton tape and suspensions were filtered, dried, and filters were attached with double sided tape. The samples were measured in the reflection geometry in a spinning measurement stage. […] The suspensions formed were analyzed after 18-24 h. […]
PROPERTY MEASURED: Polymorph

COMPOUND	ENDPOINT RESULT
O=C1[C@H](CC[C@H](O)c2ccc(F)cc2)[C@@H](c2ccc(O)cc2)N1c1ccc(F)cc1	bulk
CCCC1O[C@@H]2C[C@H]3[C@@H]4CCC5=CC(=O)C=C[C@]5(C)[C@H]4[C@@H](O)C[C@]3(C)[C@]2(C(=O)CO)O1 (stereo partly shown) [Bude, budesonide]	buik

* * *

- PROTOCOL DESCRIPTION: SEM of crystallized suspensions and dried products (crystal size grade, particle size)
- Assay type: physicochemical
- Set-up: key: 5 = nanocrystals; 1 = large crystals
- CONDITION: Poloxamer 407 5 wt.-%, no SLS, mAPI 25 mg/g
PROPERTY MEASURED: Grade (SEM, visual inspection)

COMPOUND	Grade (SEM, visual inspection)
O=C1[C@H](CC[C@H](O)c2ccc(F)cc2)[C@@H](c2ccc(O)cc2)N1c1ccc(F)cc1	1

1 = CNC(=O)c1ccc(N2C(=S)N(c3cnc(C#N)c(C(F)(F)F)c3)C(=O)C23CCC3)cc1F [Apa, apalutamide]
2 = Cc1cc(Nc2ncc(Cl)c(Nc3ccccc3S(=O)(=O)C(C)C)n2)c(OC(C)C)cc1C1CCNCC1
3 = CCCC1O[C@@H]2C[C@H]3[C@@H]4CCC5=CC(=O)C=C[C@]5(C)[C@H]4[C@@H](O)C[C@]3(C)[C@]2(C(=O)CO)O1 (stereo partly shown) [Bude, budesonide]
In: Returns the items ordered by Grade (SEM, visual inspection), from maximum to minimum. # answer = labels listed in requested order
Out: 2, 1, 3

* * *

- PROTOCOL DESCRIPTION: Crystallization of amorphous nanosized API in aqueous polymer solution, polymorph/crystallinity by XRD
- Assay type: physicochemical
- Set-up: key: bulk = same as the API before conversion to amorphous nanoparticles
- CONDITION: PVPVA 5 wt.-%, SLS 0.2 wt.-%, mAPI 25 mg/g

MOLECULE	Polymorph
CCCC1O[C@@H]2C[C@H]3[C@@H]4CCC5=CC(=O)C=C[C@]5(C)[C@H]4[C@@H](O)C[C@]3(C)[C@]2(C(=O)CO)O1 (stereo partly shown) [Bude, budesonide]	bulk
CNC(=O)c1ccc(N2C(=S)N(c3cnc(C#N)c(C(F)(F)F)c3)C(=O)C23CCC3)cc1F [Apa, apalutamide]	new

* * *

- PROTOCOL DESCRIPTION: Crystallization of amorphous nanosized API in aqueous polymer solution, polymorph/crystallinity by XRD
- Assay type: physicochemical
- Parameters: key: bulk = same as the API before conversion to amorphous nanoparticles
- CONDITION: PVPVA 2.5 wt.-%, no SLS, mAPI 25 mg/g
PROPERTY MEASURED: Polymorph

MOLECULE	ENDPOINT RESULT
CCCC1O[C@@H]2C[C@H]3[C@@H]4CCC5=CC(=O)C=C[C@]5(C)[C@H]4[C@@H](O)C[C@]3(C)[C@]2(C(=O)CO)O1 (stereo partly shown) [Bude, budesonide]	bulk
CNC(=O)c1ccc(N2C(=S)N(c3cnc(C#N)c(C(F)(F)F)c3)C(=O)C23CCC3)cc1F [Apa, apalutamide]	new
O=C1[C@H](CC[C@H](O)c2ccc(F)cc2)[C@@H](c2ccc(O)cc2)N1c1ccc(F)cc1 [Eze, ezetimibe]	bulk

* * *

- PROTOCOL DESCRIPTION: Crystallization of amorphous nanosized API in aqueous polymer solution, polymorph/crystallinity by XRD
- Type: physicochemical
- CONDITION: PVPVA 1 wt.-%, SLS 0.2 wt.-%, mAPI 25 mg/g

MOLECULE	Polymorph
CNC(=O)c1ccc(N2C(=S)N(c3cnc(C#N)c(C(F)(F)F)c3)C(=O)C23CCC3)cc1F [Apa, apalutamide]	new
CCCC1O[C@@H]2C[C@H]3[C@@H]4CCC5=CC(=O)C=C[C@]5(C)[C@H]4[C@@H](O)C[C@]3(C)[C@]2(C(=O)CO)O1 (stereo partly shown) [Bude, budesonide]	bulk
O=C1[C@H](CC[C@H](O)c2ccc(F)cc2)[C@@H](c2ccc(O)cc2)N1c1ccc(F)cc1	bulk

* * *

- PROTOCOL DESCRIPTION: SEM of crystallized suspensions and dried products (crystal size grade, particle size)
- Type: physicochemical
- CONDITION: Poloxamer 407 2.5 wt.-%, no SLS, mAPI 25 mg/g
PROPERTY MEASURED: Grade (SEM, visual inspection)

COMPOUND	ENDPOINT RESULT
CCCC1O[C@@H]2C[C@H]3[C@@H]4CCC5=CC(=O)C=C[C@]5(C)[C@H]4[C@@H](O)C[C@]3(C)[C@]2(C(=O)CO)O1 (stereo partly shown) [Bude, budesonide]	1

I = Cc1cc(Nc2ncc(Cl)c(Nc3ccccc3S(=O)(=O)C(C)C)n2)c(OC(C)C)cc1C1CCNCC1 [Cere, ceritinib]
II = O=C1[C@H](CC[C@H](O)c2ccc(F)cc2)[C@@H](c2ccc(O)cc2)N1c1ccc(F)cc1 [Eze, ezetimibe]
III = CNC(=O)c1ccc(N2C(=S)N(c3cnc(C#N)c(C(F)(F)F)c3)C(=O)C23CCC3)cc1F [Apa, apalutamide]
In: Provide the items ranked by increasing Grade (SEM, visual inspection). Record the ranking as a list of labels in the requested order.
Out: II, III, I
(II: 1, III: 2, I: 5)

* * *

- PROTOCOL DESCRIPTION: Crystallization of amorphous nanosized API in aqueous polymer solution, polymorph/crystallinity by XRD
- Format: physicochemical
- Parameters: key: bulk = same as the API before conversion to amorphous nanoparticles
- CONDITION: Poloxamer 407 1 wt.-%, no SLS, mAPI 25 mg/g

MOLECULE	Polymorph
CCCC1O[C@@H]2C[C@H]3[C@@H]4CCC5=CC(=O)C=C[C@]5(C)[C@H]4[C@@H](O)C[C@]3(C)[C@]2(C(=O)CO)O1 (stereo partly shown) [Bude, budesonide]	bulk
O=C1[C@H](CC[C@H](O)c2ccc(F)cc2)[C@@H](c2ccc(O)cc2)N1c1ccc(F)cc1 [Eze, ezetimibe]	bulk

* * *

- PROTOCOL DESCRIPTION: Crystallization of amorphous nanosized API in aqueous polymer solution, polymorph/crystallinity by XRD
- Assay type: physicochemical
- Design: key: bulk = same as the API before conversion to amorphous nanoparticles
- CONDITION: HPMC 2.5 wt.-%, no SLS, mAPI 25 mg/g
PROPERTY MEASURED: Polymorph

COMPOUND	ENDPOINT RESULT
CCCC1O[C@@H]2C[C@H]3[C@@H]4CCC5=CC(=O)C=C[C@]5(C)[C@H]4[C@@H](O)C[C@]3(C)[C@]2(C(=O)CO)O1 (stereo partly shown) [Bude, budesonide]	bulk
CNC(=O)c1ccc(N2C(=S)N(c3cnc(C#N)c(C(F)(F)F)c3)C(=O)C23CCC3)cc1F [Apa, apalutamide]	new

* * *

- PROTOCOL DESCRIPTION: Crystallization of amorphous nanosized API in aqueous polymer solution, polymorph/crystallinity by XRD
- Type: physicochemical
- CONDITION: PVPVA 2.5 wt.-%, SLS 0.2 wt.-%, mAPI 25 mg/g
PROPERTY MEASURED: Polymorph

COMPOUND	PROPERTY MEASURED	ENDPOINT RESULT
CNC(=O)c1ccc(N2C(=S)N(c3cnc(C#N)c(C(F)(F)F)c3)C(=O)C23CCC3)cc1F [Apa, apalutamide]	Polymorph	new
O=C1[C@H](CC[C@H](O)c2ccc(F)cc2)[C@@H](c2ccc(O)cc2)N1c1ccc(F)cc1 [Eze, ezetimibe]	Polymorph	bulk
CCCC1O[C@@H]2C[C@H]3[C@@H]4CCC5=CC(=O)C=C[C@]5(C)[C@H]4[C@@H](O)C[C@]3(C)[C@]2(C(=O)CO)O1 (stereo partly shown) [Bude, budesonide]	Polymorph	bulk
